Conditions: buffer; pH 7.4; 200.0 µM
Reported values of solubility kinetic for individual entries
Numbers only here, please. The scale is µg/mL.

• CCOc1cc(C)c(S(=O)(=O)NCCCn2ccnc2)cc1C = 41.2
• C=CCS(=O)(=O)N1CCCC(N(C)CCc2ccc(OC)c(OC)c2)C1 (configuration not stated) = 44.4
• O=C(CNCc1ccc(F)cc1)Nc1cc(S(=O)(=O)N2CCOCC2)ccc1Cl = 8.4
• COc1ccc(NC(=O)NC2CCCCCCC2)c(OC)c1 = 5.5
• Cc1ncc(S(=O)(=O)C(C)(C)C)c(N)n1 = 27.2
• Cc1ccc(NC(=O)COc2ccc3c(c2)OCO3)c(C)c1 = 6.1
• CC1CCc2c(sc(NC(=O)c3cccn3C)c2C(N)=O)C1 (configuration not stated) = 2.9

// next item, solubility kinetic requested
Per the record, `CCOc1ccc(-c2nonc2NC(=O)c2ccco2)cc1` has solubility kinetic of 12.1

Reference source for all entries: PubChem BioAssay AID1996
